Quick reference: IC50 of the listed items.
Target: PDGFR-β (Homo sapiens)
Sequence (P09619 33-1106): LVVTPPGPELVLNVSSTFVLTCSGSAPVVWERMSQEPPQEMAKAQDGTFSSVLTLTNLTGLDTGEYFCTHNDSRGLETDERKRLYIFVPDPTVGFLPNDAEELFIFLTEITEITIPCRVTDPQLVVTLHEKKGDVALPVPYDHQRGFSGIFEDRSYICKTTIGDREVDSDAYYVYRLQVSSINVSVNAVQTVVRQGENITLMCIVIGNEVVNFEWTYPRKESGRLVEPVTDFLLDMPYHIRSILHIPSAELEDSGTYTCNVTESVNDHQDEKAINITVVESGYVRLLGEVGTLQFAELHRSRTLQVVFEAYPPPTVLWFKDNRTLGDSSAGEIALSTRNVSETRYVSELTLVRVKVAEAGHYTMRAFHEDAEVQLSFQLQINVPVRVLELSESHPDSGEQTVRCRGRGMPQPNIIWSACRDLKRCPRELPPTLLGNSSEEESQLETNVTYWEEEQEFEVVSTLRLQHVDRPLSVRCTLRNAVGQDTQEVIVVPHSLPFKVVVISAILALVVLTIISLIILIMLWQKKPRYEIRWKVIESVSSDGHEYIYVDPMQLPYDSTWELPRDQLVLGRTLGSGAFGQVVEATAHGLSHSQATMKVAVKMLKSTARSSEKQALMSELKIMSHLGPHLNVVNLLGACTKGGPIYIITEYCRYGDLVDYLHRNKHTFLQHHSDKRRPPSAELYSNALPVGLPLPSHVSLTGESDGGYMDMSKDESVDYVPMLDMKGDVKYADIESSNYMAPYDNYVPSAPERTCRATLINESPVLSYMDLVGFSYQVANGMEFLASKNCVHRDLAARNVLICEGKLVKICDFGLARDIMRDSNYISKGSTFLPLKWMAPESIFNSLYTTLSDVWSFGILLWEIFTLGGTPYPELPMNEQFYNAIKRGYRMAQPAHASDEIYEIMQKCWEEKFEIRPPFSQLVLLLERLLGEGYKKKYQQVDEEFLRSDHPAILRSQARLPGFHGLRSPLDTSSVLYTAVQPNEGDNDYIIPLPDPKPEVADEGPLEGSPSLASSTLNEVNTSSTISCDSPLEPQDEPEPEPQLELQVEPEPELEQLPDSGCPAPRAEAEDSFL
Assay: Biochemical PDGFR assay (ELISA, PDGFR-β expressing NIH 3T3 cell lysate)
Conditions: read-out: bio PDGF IC50

Example results:
1. CC(=O)Nc1ccc2c(c1)NC(=O)/C2=C/c1ccc(OCCN2CCOCC2)c(-c2cccs2)c1 | > 100 µM
2. CNS(=O)(=O)c1ccc2c(c1)/C(=C/c1c(C)[nH]c3ccccc13)C(=O)N2 | > 100 µM
3. CCOC(=O)c1c(C)[nH]c(/C=C2\C(=O)Nc3ccc(S(N)(=O)=O)cc32)c1CCCN(C)C | 2.69 µM
4. COc1ccc(/C=C2/C(=O)Nc3ccc(F)cc32)cc1C1CCCC1 | > 100 µM
5. COc1ccccc1-c1ccc2c(c1)NC(=O)/C2=C\c1[nH]c(C)cc1CCC(=O)O | 2.79 µM
6. CCOC(=O)c1c(C)[nH]c(/C=C2\C(=O)Nc3ccc(S(=O)(=O)NC)cc32)c1CCCN1CCN(C)CC1 | > 100 µM
7. Cc1cc(CCC(=O)O)c(/C=C2\C(=O)Nc3ccc(Br)cc32)[nH]1 | 0.02 µM
8. Nc1ccc2c(c1)/C(=C/c1ccc3[nH]ccc3c1)C(=O)N2 | > 100 µM

Query: Given the compound "CC(=O)Nc1ccc2c(c1)NC(=O)/C2=C/c1ccc(OCCN2CCOCC2)c(-c2ccsc2)c1" , what is its reported IC50?
Response: > 100 µM

Query: Further, for "O=C(O)CCc1c(/C=C2\C(=O)Nc3ccccc32)[nH]c2c1CCCC2" ?
Response: 2.08 µM

Query: Moving on to the next compound: "COc1c(C(C)C)cc(/C=C2/C(=O)Nc3ccc(Cl)cc32)cc1C(C)C"
Response: > 100 µM

Query: Try this compound too: "CN(C)C(=O)CCc1c(/C=C2\C(=O)Nc3ccccc32)[nH]c2c1CCCC2"
Response: > 100 µM

Query: Likewise for "CC(C)c1cc(/C=C2/C(=O)Nc3ccc(Br)cc32)cc(C(C)C)c1OCCN1CCOCC1" ?
Response: > 100 µM

Query: What do we get for "CCOC(=O)c1[nH]c(/C=C2\C(=O)Nc3cc(-c4ccccc4)ccc32)c(CCC(=O)O)c1C" ?
Response: > 100 µM

Query: Next compound up: "COc1cccc(-c2ccc3c(c2)NC(=O)/C3=C\c2[nH]c3c(c2CCC(=O)O)CCCC3)c1"
Response: 0.68 µM

Query: What do you get for "COc1ccc2c(c1)NC(=O)/C2=C/c1ccc(OC)c(-c2ccsc2)c1" ?
Response: > 100 µM

Query: One more compound: "CNS(=O)(=O)c1ccc2c(c1)/C(=C/c1c[nH]c3ccccc13)C(=O)N2"
Response: > 100 µM

Query: What do you have for "COc1ccc(C=C2C(=O)Nc3ccccc32)cc1-c1cccc(NC(C)=O)c1" ?
Response: > 100 µM

Query: // repeat for "CC(=O)c1ccc2c(c1)C(=Cc1[nH]c3ccccc3c1C)C(=O)N2" and report
Response: > 100 µM

Query: Then this compound: "CCOC(=O)c1[nH]c(C=C2C(=O)Nc3ccc(S(N)(=O)=O)cc32)c(CCC(=O)O)c1C"
Response: > 100 µM

Query: Note, next up: "Cc1c[nH]c(C=C2C(=O)Nc3cc(Cl)ccc32)c1CCC(=O)O"
Response: 0.47 µM

Query: Consider next the compound "O=C1Nc2ccc(C(=O)O)cc2/C1=C/c1c[nH]c2ccccc12" in the same way.
Response: 2.5 µM
